Assay: BET inhibitor-based combinations targeting novel dependencies in MECOM-rearranged (r) AML: MV-4-11 cell line (AID 2202233); note: nearly all actives have a fitted effect of over 45% in size; note: potency is the fitted concentration of half-maximal effect
Details: MV-4-11 AML viability, CellTiter-Glo luminescence, 48 h; series mostly up to 46 µM
Inconclusive results are not listed. Calls of active or inactive are those of the source. Calls come from the whole dose curve; as a rule, active = well fitted inhibition curve with a large enough effect; inconclusive = small, poorly fitted or top-dose-only effect; inactive = no such curve, though single readings can be large or run the other way.
Below, each entry is listed with its recorded Potency.

// solved cases for Potency follow
>  <recordSmiles>
CCOc1cc(/C=C2/C(=O)N(c3ccccc3)N=C2C)cc(Cl)c1OCC(=O)OC

>  <Potency>
20.9 µM (active)

$$$$
>  <recordSmiles>
CN1C/C=C/CCOc2cccc(c2)-c2ccnc(n2)Nc2cccc(c2)C1

>  <Potency>
0.417 µM (active)

$$$$

Here is the next item to consider.
[in] Give me measured Potency, please, for this molecule: `CN(C)c1ccc(C(=O)NCCCCCCC(=O)NO)cc1`
[out] 0.59 µM (active)

----------
Assay: BET inhibitor-based combinations targeting novel dependencies in MECOM-rearranged (r) AML: UCSD-AML1 cell line (AID 2202235); note: nearly all actives have a fitted effect of over 40% in size
Conditions: UCSD-AML1 AML cells viability, CellTiter-Glo, 48 h; series mostly up to 46 µM
Protocol: Ecotropic viral insertion site 1 (EVI1) is located on chromosome 3q26.2 as part of the MECOM (MDS and EVI1 complex) locus. […] A collection of 2480 mechanistically annotated dugs (MIPE v5.0) was used to screen four 3q26.2 rearranged AML cell lines and three non-3q26.2 rearranged AML cell lines. […] Cell viability was determined by luminescence based, Cell Titer Glo assay (Promega). […] Luminescence readings were taken using a Viewlux (PerkinElmer) with a 2 s exposure time per plate. […]
Inconclusive results are not listed. The source made the active and inactive calls. Calls come from the whole dose curve; as a rule, active = well fitted inhibition curve with a large enough effect; inconclusive = small, poorly fitted or top-dose-only effect; inactive = no such curve, though single readings can be large or run the other way.
// one of active, inactive, no free text

>  <recordSmiles>
NC(=O)/C(=C/n1cnc(-c2cc(C(F)(F)F)cc(C(F)(F)F)c2)n1)c1cncnc1

>  <qualitativeLabel>
active

$$$$
>  <recordSmiles>
COCCOc1cnc2ccn([C@H](C)c3nnc4c(F)cc(-c5cnn(C)c5)cn34)c(=O)c2c1

>  <qualitativeLabel>
inactive

$$$$

[in] Assay outcome for `Cc1c(-c2cnccn2)ssc1=S` : what was it?
[out] inactive

[in] Outcome? `O=C(c1ccc(F)c(F)c1Nc1ccc(I)cc1F)N1CC(O)([C@@H]2CCCCN2)C1`
[out] active

----------
Assay: BET inhibitor-based combinations targeting novel dependencies in MECOM-rearranged (r) AML: MV-4-11 cell line (AID 2202233); note: nearly all actives have a fitted effect of over 45% in size
Conditions: MV-4-11 AML viability, CellTiter-Glo luminescence, 48 h; series mostly up to 46 µM
Records with an inconclusive call do not appear. Calls of active or inactive are those of the source. The call rests on the fitted dose curve; in most records, active means well fitted inhibition curve with a large enough effect; inconclusive means small, poorly fitted or top-dose-only effect; inactive means no such curve, though single readings can be large or run the other way.
Pick one and only one: active, inactive

Look over these answered cases.
>  <compound>
COC1CCC(N2C(=O)CNc3ncc(-c4ccc(C(C)(C)O)nc4)nc32)CC1 (centres undefined)

>  <qualitativeLabel>
active

$$$$
>  <compound>
COc1ccc(OC)c(-c2nnc3ccc(-c4ccc(OC)c(O[C@@H]5CCOC5)c4)nn23)c1

>  <qualitativeLabel>
active

$$$$
>  <compound>
O=C(O)C1(Cc2cccc(Nc3nccs3)n2)CCC(Oc2cccc(Cl)c2F)CC1 (centres undefined)

>  <qualitativeLabel>
active

$$$$

[in] GET /call?item= `CC(=O)Nc1ccc(O)cc1` returns the recorded outcome of this test.
[out] inactive

----------
Test: qHTS for Inhibitors of the Aldehyde Dehydrogenase Family (ALDH1A2, ALDH1A3, ALDH2, ALDH3A1) (AID 2061307); note: nearly all actives have a fitted effect of over 50% in size
Conditions: ALDH inhibition qHTS; series mostly up to 50.3 µM
Results filed as inconclusive are left out. Calls of active or inactive are those of the source. Calls follow the shape of the dose curve; as a rule, active = well fitted inhibition curve with a large enough effect; inconclusive = small, poorly fitted or top-dose-only effect; inactive = no such curve, though single readings can be large or run the other way.
The reply should be one of these categories: 1 = active, -1 = inactive

[in] // outcome(item) with item = `O=C(Nc1cccc(C(F)(F)F)c1)c1ccccc1NCc1ccccc1`
[out] -1

[in] Tell me the recorded outcome of this test for `C[C@@H](O)c1ccc(-c2ccc3ncnc(NCc4cccs4)c3c2)o1` .
[out] -1

[in] Lab log entry: `Cc1ccnc(CC(=S)N2CCN(c3cccc(C(F)(F)F)c3)CC2)c1` — outcome as called in the assay?
[out] 1

[in] // param item: `CC(C)CCn1c(O)c(N=NC(=O)c2cccnc2)c2ccccc21` ; yields the recorded call
[out] -1

[in] Which outcome was assigned to `CC(=O)Nc1ccc(OCc2cn(CC(=O)c3ccc(O)cc3)nn2)cc1` in this test?
[out] -1

[in] Given `Cc1ccccc1C(=O)N1CCc2cc(-c3nc(NC(=O)CC4CCOCC4)sc3C)ccc21` , state the outcome it received in this test.
[out] 1

[in] Dear all, I need the recorded test outcome for CC(NC(=O)c1ccco1)c1nc(-c2ccccc2)no1 (stereo not given) , thank you.
[out] -1
